# System: UniProt P08912
# Sequence (P08912 whole entry): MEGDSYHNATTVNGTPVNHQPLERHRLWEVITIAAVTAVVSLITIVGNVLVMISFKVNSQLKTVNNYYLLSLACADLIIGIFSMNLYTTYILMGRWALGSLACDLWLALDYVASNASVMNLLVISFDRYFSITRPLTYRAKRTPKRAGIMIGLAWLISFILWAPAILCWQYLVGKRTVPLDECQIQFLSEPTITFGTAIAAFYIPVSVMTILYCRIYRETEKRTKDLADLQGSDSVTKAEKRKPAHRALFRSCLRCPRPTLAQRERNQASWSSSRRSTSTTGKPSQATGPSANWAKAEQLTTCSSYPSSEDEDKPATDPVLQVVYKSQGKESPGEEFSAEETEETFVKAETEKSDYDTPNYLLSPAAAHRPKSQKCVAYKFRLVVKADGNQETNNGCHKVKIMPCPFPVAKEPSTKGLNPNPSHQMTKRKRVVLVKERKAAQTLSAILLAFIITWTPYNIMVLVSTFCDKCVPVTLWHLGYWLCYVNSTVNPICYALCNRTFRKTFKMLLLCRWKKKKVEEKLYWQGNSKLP
# Assay remarks: Inhibition of [3H]NMS binding to human muscarinic acetylcholine receptor M5 in transfected CHO cells.
Attribute measured: pKi
Please treat pKi as minus the base-10 logarithm of the molar concentration.

Compound	System	Attribute measured	Recorded measurement
CCOC(=O)c1c(CC)n(C)c2ccc3c(c12)CN1CCc2cc(OC)ccc2C1O3 (stereo not given)	UniProt P08912	pKi	5.51
CCN(C)C(=O)c1c(C)[nH]c2ccc3c(c12)CN1CCc2cc(OC)ccc2C1O3 (stereo not given)	UniProt P08912	pKi	4.71
COc1ccc2c(c1)CCN1Cc3c(ccc4[nH]c(C)c(Cc5ccccc5)c34)OC21 (stereo not given)	UniProt P08912	pKi	5.95
CCOC(=O)c1c(C)[nH]c2ccc3c(c12)CN1CCc2cccc(Cl)c2C1O3 (stereo not given)	UniProt P08912	pKi	5.32
CCCc1[nH]c2ccc3c(c2c1C(=O)OCC)CN1CCc2cc(OC)ccc2C1O3 (stereo not given)	UniProt P08912	pKi	5.65

query: I am curious: what pKi value has been reported for CCOC(=O)c1c(C)[nH]c2ccc3c(c12)CN1CCc2cc(SC)ccc2C1O3 (stereo not given) ?
result: 5.71

query: I am curious: what pKi value has been reported for CCOC(=O)c1c(CC)n(Cc2ccccc2)c2ccc3c(c12)CN1CCc2cc(OC)ccc2C1O3 (stereo not given) ?
result: 6.32

query: I am curious: what pKi value has been reported for COc1ccc2c(c1)CCN1Cc3c(ccc4[nH]c(C)c(C(=O)OCc5ccccc5)c34)OC21 (stereo not given) ?
result: 5.95

query: I am curious: what pKi value has been reported for CCOC(=O)c1c(CC)[nH]c2ccc3c(c12)CN1CCc2cc(OC)ccc2C1O3 (stereo not given) ?
result: 5.51

query: I am curious: what pKi value has been reported for COc1ccc2c(c1)CCN1Cc3c(ccc4[nH]c(C)c(-c5nc(C)no5)c34)OC21 (stereo not given) ?
result: 5.21

query: I am curious: what pKi value has been reported for CCCCc1[nH]c2ccc3c(c2c1C(=O)OCC)CN1CCc2cc(OC)ccc2C1O3 (stereo not given) ?
result: 4.95

query: I am curious: what pKi value has been reported for CCOC(=O)c1c(C)[nH]c2ccc3c(c12)CN1CCc2cc(Cl)ccc2C1O3 (stereo not given) ?
result: 5.27

query: I am curious: what pKi value has been reported for CCCc1c(C(=O)OCC)c2c3c(ccc2n1C)OC1c2ccc(OC)cc2CCN1C3 (stereo not given) ?
result: 5.47

query: I am curious: what pKi value has been reported for C=CCOC(=O)c1c(C)[nH]c2ccc3c(c12)CN1CCc2cc(OC)ccc2C1O3 (stereo not given) ?
result: 5.65

query: I am curious: what pKi value has been reported for CCCc1[nH]c2ccc3c(c2c1C(=O)OCC)CN1CCc2cc(SC)ccc2C1O3 (stereo not given) ?
result: 5.62
